Biological target: T1, EsCas13d, nuclease-dead (Eubacterium siraeum, UniProt B0MS50, R295A;H300A;R849A;H854A)
T1 sequence: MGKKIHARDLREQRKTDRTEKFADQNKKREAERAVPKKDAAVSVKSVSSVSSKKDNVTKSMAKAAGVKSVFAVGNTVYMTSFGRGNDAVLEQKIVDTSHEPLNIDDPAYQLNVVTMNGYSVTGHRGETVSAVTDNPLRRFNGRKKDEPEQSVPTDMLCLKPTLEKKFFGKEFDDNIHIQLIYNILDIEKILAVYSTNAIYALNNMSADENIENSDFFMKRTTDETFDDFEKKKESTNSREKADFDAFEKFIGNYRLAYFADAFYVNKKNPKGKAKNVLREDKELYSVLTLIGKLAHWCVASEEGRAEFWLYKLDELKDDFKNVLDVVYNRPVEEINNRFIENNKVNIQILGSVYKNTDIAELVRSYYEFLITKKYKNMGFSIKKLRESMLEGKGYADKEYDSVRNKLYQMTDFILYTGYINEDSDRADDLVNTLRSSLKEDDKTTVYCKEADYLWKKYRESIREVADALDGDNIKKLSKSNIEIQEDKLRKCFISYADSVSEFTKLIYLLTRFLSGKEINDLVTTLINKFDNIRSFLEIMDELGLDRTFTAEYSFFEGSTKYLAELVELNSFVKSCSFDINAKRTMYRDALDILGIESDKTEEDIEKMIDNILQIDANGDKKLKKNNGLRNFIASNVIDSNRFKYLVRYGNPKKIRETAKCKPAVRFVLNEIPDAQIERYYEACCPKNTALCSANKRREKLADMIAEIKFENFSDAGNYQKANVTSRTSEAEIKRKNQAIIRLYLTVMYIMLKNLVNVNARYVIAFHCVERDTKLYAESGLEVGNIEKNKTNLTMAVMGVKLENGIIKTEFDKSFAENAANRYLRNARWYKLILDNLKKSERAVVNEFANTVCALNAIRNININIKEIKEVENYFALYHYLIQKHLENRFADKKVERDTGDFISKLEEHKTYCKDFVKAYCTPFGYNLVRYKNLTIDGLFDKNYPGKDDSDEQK
Experiment: crRNA (strand 1, pre-loaded); Mg2+; 40 mM Tris-HCl pH 7.5, 150 mM NaCl, 6 mM MgCl2, 1 mM DTT, 0.1% Tween-20, 0.2 mg/ml BSA; 25 C; 10 min per concentration, then washed
Conditions: tags: His6-TwinStrep-SUMO cleaved; N-terminal SNAP kept (SNAP-Surface 488); label: 3' end held by stalled T7 RNA polymerase
property: pKd
Bear in mind: pKd is minus log10 of a mol/L concentration; give just that figure.

Below, 6 binders whose answers are already recorded.
• target 2 MT 5'PFS UUU 3'PFS AAU (mixed) RNA 1: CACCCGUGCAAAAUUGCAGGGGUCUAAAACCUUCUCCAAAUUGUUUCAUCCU RNA 2: GGGAAUGGAUCCACAUCUACGAAUUCUUUAGGAUGAAACAAUUUGGAGAAGAAUAGAUCGGAAGAGCACACGU = 8.00
• target 1 C7U,G17U (mixed) RNA 1: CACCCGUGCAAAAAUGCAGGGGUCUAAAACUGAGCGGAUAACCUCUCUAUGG RNA 2: GGGAAUGGAUCCACAUCUACGAAUUCGUACCAUAUAGAGGUUAUUCGCUCACCGAGAUCGGAAGAGCACACGU = 7.71
• target 1 G15A,A16C (mixed) RNA 1: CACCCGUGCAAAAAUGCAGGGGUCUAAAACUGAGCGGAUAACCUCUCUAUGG RNA 2: GGGAAUGGAUCCACAUCUACGAAUUCGUACCAUAGCAAGGUUAUCCGCUCACCGAGAUCGGAAGAGCACACGU = 7.52
• target 1 insG 3' of 22,insC 3' of 19 (mixed) RNA 1: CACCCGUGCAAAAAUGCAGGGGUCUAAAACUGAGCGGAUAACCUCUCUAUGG RNA 2: GGGAAUGGAUCCACAUCUACGAAUUCGUACGCAUCAGAGAGGUUAUCCGCUCACCGAGAUCGGAAGAGCACACGU = 7.28
• target 3 insA 3' of 8 (mixed) RNA 1: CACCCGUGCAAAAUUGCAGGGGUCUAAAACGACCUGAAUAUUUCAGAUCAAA RNA 2: GGGAAUGGAUCCACAUCUACGAAUUCGUUUUUGAUCUGAAAUAUAUCAGGUCUGCAGAUCGGAAGAGCACACGU = 7.30
• target 1 insU 3' of 22,insG 3' of 22 (mixed) RNA 1: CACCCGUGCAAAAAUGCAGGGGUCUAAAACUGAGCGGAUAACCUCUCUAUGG RNA 2: GGGAAUGGAUCCACAUCUACGAAUUCGUACUGCAUAGAGAGGUUAUCCGCUCACCGAGAUCGGAAGAGCACACGU = 7.52

Moving on to another binder below.
IN: // returns reported pKd for input target 1 insG 3' of 10,insA 3' of 4 (mixed) RNA 1: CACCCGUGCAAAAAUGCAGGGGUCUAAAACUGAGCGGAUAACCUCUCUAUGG RNA 2: GGGAAUGGAUCCACAUCUACGAAUUCGUACCAUAGAGAGGUUGAUCCGCAUCACCGAGAUCGGAAGAGCACACGU
OUT: 7.46
